Molecular target: LASV 237 (lineage III) glycoprotein (Lassa virus, strain 237)
Assay: cell-based or functional assay
So I've got a bunch of binders here, and I need their IC50 (neutralization) values.
Kindly provide the numeric value in µg/mL only, without the unit symbol.

// recorded IC50 (neutralization) for 9.8A (antibody, V domains shown) VH: EVQLVQSGGRLVQPGGSLRLSCVASGFTFSSHAMSWVRQAPGKGLEWVSGFSGSSGTTKYADSVKGRFTISRDNSKKTLYLQMNSLRAEDTAVYYCAKGFSPFRGVQFPYFDYWGQGTLVTVSS VL: DIVMTQSPSTLSASVGDRVTITCRASQSIDRWLAWYQQKPGKAPKLLIYQASSLERGVPSRFSGSGSGTEFTLTISSLQPDDFATYYCQQYNGYPLTFGGGTKVEIKR : 0.193

// recorded IC50 (neutralization) for 36.9F (antibody, V domains shown) VH: EVQLVQSGGGLVKAGGSLKLSCGASGFTFSSYSMSWVRQAPGKGLEWVSYISSGGSSIHYADSVKGRFTISRDNAKNSLYLQMKNLRVDDTGRYYCVRDPRSGISGRYGMDVWGQGTTVTVSS VL: DIVMTQSPDSLAVSLGERATINCKSSQTVLFTSYYVAWYQQKPGQPPKLLFSGASSRESGVPDRFSAGGSGTDFYLTINSLQAEDVADYYCQQYHTPPFTFGGGTKLEIRR : 4.69

// recorded IC50 (neutralization) for 37.2D (antibody, V domains shown) VH: EVQLVQSGAEVKKPGASVKVSCKASGYTFTKYGISWVRQAPGQGLEWMGWISAFNGYTRYGQRFQGKVTMTTDTSTNTASLEVRTLTSNDTAVYYCARQYPDQYSSSGWPRLFAMDVWGQGTTVIVSP VL: ETTLTQSPATLSVSPGETATLSCRASQNVINNLAWYQQKPGQAPRLLIYGASTRATGIPARFSGSGSGTEFTLTISSMQSEDFAVYYCQQYNDWPRSFGQGTRLDIRR : 0.256
